MEASURED_TARGET: Prolyl endopeptidase (Sus scrofa)
Sequence (P23687 whole entry): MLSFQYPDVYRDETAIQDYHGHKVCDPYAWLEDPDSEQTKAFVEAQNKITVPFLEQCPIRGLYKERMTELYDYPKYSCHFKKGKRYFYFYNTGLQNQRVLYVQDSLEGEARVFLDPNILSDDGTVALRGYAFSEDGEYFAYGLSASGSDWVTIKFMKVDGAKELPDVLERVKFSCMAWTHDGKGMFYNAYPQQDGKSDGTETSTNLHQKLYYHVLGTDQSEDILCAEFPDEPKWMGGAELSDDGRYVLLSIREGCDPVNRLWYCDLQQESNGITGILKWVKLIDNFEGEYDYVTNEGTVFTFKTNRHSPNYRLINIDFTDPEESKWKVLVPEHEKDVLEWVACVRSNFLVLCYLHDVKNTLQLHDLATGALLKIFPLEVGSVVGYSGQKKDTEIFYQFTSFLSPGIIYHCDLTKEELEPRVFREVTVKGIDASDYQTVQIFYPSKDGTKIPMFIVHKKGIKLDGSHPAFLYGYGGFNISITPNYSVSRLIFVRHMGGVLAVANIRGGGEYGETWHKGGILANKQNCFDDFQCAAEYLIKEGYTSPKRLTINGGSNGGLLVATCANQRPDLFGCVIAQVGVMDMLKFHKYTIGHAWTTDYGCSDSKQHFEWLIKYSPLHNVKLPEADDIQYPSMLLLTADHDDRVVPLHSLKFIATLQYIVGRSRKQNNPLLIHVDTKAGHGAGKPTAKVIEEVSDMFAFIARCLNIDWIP
ASSAY_COMMENT: Inhibitory activity against prolyl oligopeptidase of porcine brain homogenate
pIC50: −log10 of the molar value.
MEASURED_PROPERTY: pIC50

a = N#C[C@@H]1CCCN1C(=O)[C@H]1CCC=C1C(=O)CCCc1ccccc1
b = O=C(NCc1ccccc1)C1=CCC[C@@H]1C(=O)N1CCC[C@H]1C(=O)CO
[in] Consider a and b . Which of these has its pIC50 at a higher number? Answer by quoting the chosen item's label.
[out] a

###

ASSAY_COMMENT: Partition coefficient (logP) determined in a 1-octanol-phosphate buffer system
Assay type: physicochemical
MEASURED_PROPERTY: logP

The cases that follow already have their logP on record.
O=C(NCc1ccccc1)C1=CCC[C@H]1C(=O)N1CCC[C@H]1C(=O)CO 0.6
O=C([C@@H]1CCCN1C(=O)CCCc1ccccc1)N1CCCC1 1.8

P = N#C[C@@H]1CCCN1C(=O)[C@@H]1CCCN1C(=O)CCCc1ccccc1
Q = O=C(CO)[C@@H]1CCCN1C(=O)[C@@H]1CCCN1C(=O)NCc1ccccc1
R = N#C[C@@H]1CCCN1C(=O)[C@@H]1CCC=C1C(=O)CCCc1ccccc1
[in] Order field: logP | Direction: descending (largest first) Hello, could you send the labels back in the order asked? Thank you.
[out] R, P, Q
